Origin of the recorded values: ChEMBL document CHEMBL1143366

# Tested on: NCI-H1355
# procedure-details: Cytotoxicity against human NCI-H1355 cells assessed as survival at 4 uM after 24 hrs by MTT assay
# Type: functional
# conditions-used: NCI-H1355, 24 h, read-out: Survival
Listed below: viability at 4 µM values for each entry.
# number only, unit % dropped from output

COc1cc2c(cc1OCC#Cc1ccccc1C#Cc1ccccc1)N=C[C@@H]1CCCN1C2=O 70.9
COc1cc2c(cc1OC/C=C\COCC#Cc1ccccc1C#Cc1ccccc1)N=C[C@@H]1CCCN1C2=O 44

Moving on to another molecule below.
Exercise: Suppose we examine the molecule COc1cc2c(cc1OCC=CCOCCC#Cc1ccccc1C#Cc1ccccc1)N=C[C@@H]1CCCN1C2=O ; what viability at 4 µM value has been reported?
Key: 71

====

# Test system: NCI-H1355
# procedure-details: Cytotoxicity against human NCI-H1355 cells assessed as survival at 4 uM after 24 hrs by MTT assay
# Format: functional
# conditions-used: NCI-H1355, 24 h, read-out: Survival
The label 1 is reserved for viability at 4 µM strictly under 80%; -1 covers values equal to or above it.

Sample answers from the record:
COc1cc2c(cc1OC/C=C/COCC#Cc1ccccc1C#Cc1ccccc1)N=C[C@@H]1CCCN1C2=O 1
COc1cc2c(cc1O)N=C[C@@H]1CCCN1C2=O 1
COc1cc2c(cc1OC/C=C/COCCC#Cc1ccccc1C#Cc1ccccc1)N=C[C@@H]1CCCN1C2=O -1

Exercise: Please state whether viability at 4 µM is below 80% for COc1cc2c(cc1OCCCC#Cc1ccccc1C#Cc1ccccc1)N=C[C@@H]1CCCN1C2=O
Key: -1

Exercise: Please state whether viability at 4 µM is below 80% for COc1cc2c(cc1OCCCCC#Cc1ccccc1C#Cc1ccccc1)N=C[C@@H]1CCCN1C2=O
Key: 1

====

Listed below: viability at 24 h, 4 µM values for each entry.
# procedure-details: Cytotoxicity against human 293T cells assessed as survival at 4 uM after 24 hrs by MTT assay
# Format: cell-based, HEK-293T
# conditions-used: read-out: Survival
Write your answer as a measured quantity: the number, then the unit.

Please review the following examples before continuing.
COc1cc2c(cc1OCC#Cc1ccccc1C#Cc1ccccc1)N=C[C@@H]1CCCN1C2=O 48.9%
COc1cc2c(cc1O)N=C[C@@H]1CCCN1C2=O 68.9%
COc1cc2c(cc1OCCCC#Cc1ccccc1C#Cc1ccccc1)N=C[C@@H]1CCCN1C2=O 28.7%
COc1cc2c(cc1OC/C=C\COCC#Cc1ccccc1C#Cc1ccccc1)N=C[C@@H]1CCCN1C2=O 44%
COc1cc2c(cc1OC/C=C/COCCC#Cc1ccccc1C#Cc1ccccc1)N=C[C@@H]1CCCN1C2=O 35.2%

Exercise: Suppose we examine the compound COc1cc2c(cc1OCC=CCOCCC#Cc1ccccc1C#Cc1ccccc1)N=C[C@@H]1CCCN1C2=O ; what viability at 24 h, 4 µM value has been reported?
Key: 60.7%

Exercise: Suppose we examine the compound COc1cc2c(cc1OCCCCC#Cc1ccccc1C#Cc1ccccc1)N=C[C@@H]1CCCN1C2=O ; what viability at 24 h, 4 µM value has been reported?
Key: 19.2%

Exercise: Suppose we examine the compound COc1cc2c(cc1OC/C=C/COCC#Cc1ccccc1C#Cc1ccccc1)N=C[C@@H]1CCCN1C2=O ; what viability at 24 h, 4 µM value has been reported?
Key: 48.4%
